What follows is a collection of IC50 values obtained with Galactokinase (Homo sapiens, UniProt P51570).
Sequence (P51570 whole entry): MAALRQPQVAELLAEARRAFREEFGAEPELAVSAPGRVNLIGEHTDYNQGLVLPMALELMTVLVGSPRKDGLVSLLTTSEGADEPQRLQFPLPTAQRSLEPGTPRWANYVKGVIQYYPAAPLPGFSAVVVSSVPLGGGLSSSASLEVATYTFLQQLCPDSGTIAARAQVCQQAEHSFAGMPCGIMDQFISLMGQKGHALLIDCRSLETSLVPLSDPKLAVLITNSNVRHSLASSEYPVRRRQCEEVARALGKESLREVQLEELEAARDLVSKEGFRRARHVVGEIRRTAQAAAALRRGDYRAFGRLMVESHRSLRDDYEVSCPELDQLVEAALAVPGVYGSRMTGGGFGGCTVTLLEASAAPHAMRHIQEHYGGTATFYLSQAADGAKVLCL
State the answer as a number, implicitly in nM.

Example entries and their recorded answers appear below.
Noted for N#CC1=C(SCc2ccccc2)SC(c2cccc(O)c2)NC1=O (stereo not drawn) : its IC50 reads 50000

Data point: N#CC1=C(SCc2ccccc2)SC(c2ccc(O)cc2O)NC1=O (stereo not drawn) ; IC50 = 1200

Consider now this further molecule.
The value of IC50 measured for the molecule N#CC1=C(SCc2cccc(N3CCOCC3)c2)SC(c2cc(O)ccc2O)NC1=O (stereo not drawn) turned out to be 900
